targetOrTestSystem: Proteinase-activated receptor 1 (Homo sapiens, UniProt P25116)
Sequence (P25116 whole entry): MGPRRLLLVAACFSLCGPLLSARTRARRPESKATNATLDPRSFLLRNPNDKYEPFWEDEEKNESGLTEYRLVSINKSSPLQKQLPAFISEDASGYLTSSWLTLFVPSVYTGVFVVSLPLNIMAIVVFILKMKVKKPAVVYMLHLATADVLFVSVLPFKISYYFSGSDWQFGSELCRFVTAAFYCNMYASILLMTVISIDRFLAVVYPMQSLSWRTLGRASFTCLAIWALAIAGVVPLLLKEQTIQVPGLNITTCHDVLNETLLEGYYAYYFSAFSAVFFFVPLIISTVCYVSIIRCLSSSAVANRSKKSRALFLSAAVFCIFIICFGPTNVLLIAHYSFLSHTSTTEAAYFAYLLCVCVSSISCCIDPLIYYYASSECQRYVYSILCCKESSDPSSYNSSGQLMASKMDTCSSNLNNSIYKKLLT
methodDescription: Displacement of [3H]haTRAP from PAR1 in human platelet membrane
Entries whose IC50 is below 0.02 µM take 1; entries at or above 0.02 µM take 0.

Below are worked cases with known answers.
C[C@H]1OC(=O)[C@@H]2C[C@@H]3CN(C(=O)C4CC4)CC[C@H]3[C@H](/C=C/c3ccc(-c4cccc(F)c4)cn3)[C@H]12	1
C[C@H]1OC(=O)[C@@H]2C[C@@H]3CN(C(=O)C4CC4)CC[C@H]3[C@H](/C=C/c3ccc(-c4ccccc4F)cn3)[C@H]12	1
C[C@H]1OC(=O)[C@@H]2C[C@@H]3COCC[C@H]3[C@H](/C=C/c3ccc(-c4cccc(C(F)(F)F)c4)cn3)[C@H]12	1
C[C@H]1OC(=O)[C@@H]2C[C@@H]3CN(C(N)=O)CC[C@H]3[C@H](/C=C/c3ccc(-c4cccc(F)c4)cn3)[C@H]12	0

Req: API: query returns whether the compound falls strictly under 0.02 µM in IC50. Query: C[C@H]1OC(=O)[C@@H]2C[C@@H]3COCC[C@H]3[C@H](/C=C/c3ccc(-c4cccc(Cl)c4)cn3)[C@H]12
Resp: 1

----------
Tested on: Cynomolgus monkey
methodDescription: Ex vivo inhibition of haTRAP-induced platelet aggregation in cynomolgus monkey at 3 mg/kg, po 24 hrs
Format: functional
conditionSet: Macaca fascicularis
Catalogue of inhibition in vivo at 3 mg/kg readings, one per entry.
Reply with just the number (in %).

CCOC(=O)N1CC[C@@H]2[C@H](C[C@H]3C(=O)O[C@H](C)[C@H]3[C@H]2/C=C/c2ccc(-c3ccccc3F)cn2)C1	55
C[C@H]1OC(=O)[C@@H]2C[C@@H]3CN(C(=O)C4CC4)CC[C@H]3[C@H](/C=C/c3ccc(-c4cccc(F)c4)cn3)[C@H]12	72
CCNC(=O)N1CC[C@@H]2[C@H](C[C@H]3C(=O)O[C@H](C)[C@H]3[C@H]2/C=C/c2ccc(-c3cccc(F)c3)cn2)C1	34
C[C@H]1OC(=O)[C@@H]2C[C@@H]3CN(C(=O)C4CC4)CC[C@H]3[C@H](/C=C/c3ccc(-c4ccccc4F)cn3)[C@H]12	39

Req: Entry CCOC(=O)N1CC[C@@H]2[C@H](C[C@H]3C(=O)O[C@H](C)[C@H]3[C@H]2/C=C/c2ccc(-c3ccccn3)cn2)C1 : reported inhibition in vivo at 3 mg/kg = ?
Resp: 29

Req: Also, CCOC(=O)N1CC[C@@H]2[C@H](C[C@H]3C(=O)O[C@H](C)[C@H]3[C@H]2/C=C/c2ccc(-c3cccc(F)c3)cn2)C1 please.
Resp: 70

Req: Also, C[C@H]1OC(=O)[C@@H]2C[C@@H]3CN(S(C)(=O)=O)CC[C@H]3[C@H](/C=C/c3ccc(-c4cccc(F)c4)cn3)[C@H]12 please.
Resp: 50

----------
methodDescription: AUC (0 to 24 hrs) in cynomolgus monkey at 1 mg/kg, iv and 1.5 mg/kg, po
Type: ADME, organism-based, Macaca fascicularis
conditionSet: plasma
recordedMetric: AUC(0-t) (ng·h/mL)
Reply with just the number (in ng·h/mL).

Req: Entry C[C@H]1OC(=O)[C@@H]2C[C@@H]3COCC[C@H]3[C@H](/C=C/c3ccc(-c4ccccc4F)cn3)[C@H]12 : reported AUC(0-t) = ?
Resp: 3700
